# assay procedure: qHTS for identification of novel therapeutic agents for treatment of microphthalmiaassociated transcription factor (MiT) renal cell carcinoma (RCC) (AID 1963991);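 note: curves scaled with 100% = DMSO viability and 0% = empty wells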
# test context: TFE3-RCC viability, CellTiter-Glo, 48 h; measured here: UOK145 Z-AUC; stronger effect = lower value
Results filed as inconclusive are left out.
Hi all, reminder that labels come from z-score, split as 0 (below -1), 1 (-1 to below 0.7), 2 (0.7 or more)

> print(dat)
                                   compound  cat
1  CC(C)(O)CCc1ccc(OCc2cc(-c3cccc(OC(F)F)c3)c3ncccc3c2)cc1    1
2  COc1c(N2C[C@@H]3CCCN[C@H]3C2)c(F)cc2c(=O)c(C(=O)O)cn(C3CC3)c12    2
3  O=C(Cc1ccc(-c2ccc(OCCN3CCOCC3)cc2)cn1)NCc1ccccc1    0

Exam item: Assign a bin to C=CC(=O)Nc1cc2c(Nc3ccc(F)c(Cl)c3)ncnc2cc1C#CC(C)(C)N1CCN(C)CC1
Marked response: 0

Exam item: Then this compound: Cc1c(NC(=O)OC[C@@H]2COCCN2)cn2ncnc(Nc3ccc4c(cnn4Cc4cccc(F)c4)c3)c12
Marked response: 0
